Target: Muscarinic acetylcholine receptor (Cavia porcellus, UniProt Q8VH26)
Sequence (Q8VH26 whole entry): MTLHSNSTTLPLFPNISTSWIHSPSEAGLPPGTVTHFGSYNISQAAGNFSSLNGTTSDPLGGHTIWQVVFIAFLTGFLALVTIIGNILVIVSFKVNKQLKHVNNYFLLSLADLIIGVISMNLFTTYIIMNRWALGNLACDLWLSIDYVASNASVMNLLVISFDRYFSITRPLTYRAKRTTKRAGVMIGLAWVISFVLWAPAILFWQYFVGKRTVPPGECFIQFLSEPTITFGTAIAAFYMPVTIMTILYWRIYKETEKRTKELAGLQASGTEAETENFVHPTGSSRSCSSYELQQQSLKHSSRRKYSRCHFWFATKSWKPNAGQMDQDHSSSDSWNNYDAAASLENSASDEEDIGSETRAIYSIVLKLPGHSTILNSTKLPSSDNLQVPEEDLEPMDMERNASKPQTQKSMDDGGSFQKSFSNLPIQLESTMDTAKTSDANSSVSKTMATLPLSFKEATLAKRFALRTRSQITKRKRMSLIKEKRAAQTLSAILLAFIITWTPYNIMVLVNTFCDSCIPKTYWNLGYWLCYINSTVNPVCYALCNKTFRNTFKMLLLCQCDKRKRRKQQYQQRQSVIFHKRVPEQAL
Assay: Dissociation constant at muscarinic M3 receptors of guinea pig ileum.
recordedMetric: pKd
Keep in mind that pKd stands for -log10 of concentration in molar terms.

API: value(readout= pKd, system= Muscarinic acetylcholine receptor (Cavia porcellus, UniProt Q8VH26), query= C[C@@H]1O[C@H](C[N+](C)(C)C)C[C@H]1F ) 5.72

----------
Molecular target: Muscarinic acetylcholine receptor (Cavia porcellus)
Assay: Dissociation constant at muscarinic acetylcholine receptor M3 guinea pig bladder.
recordedMetric: Kd (µM)
Respond numerically; units are µM and should not be typed.

# lookup: Kd of C[C@@H]1O[C@H](C[N+](C)(C)C)C[C@H]1O 24

----------
Biological target: Muscarinic acetylcholine receptor (Cavia porcellus, UniProt Q8VH26)
Assay: Dissociation constant at muscarinic acetylcholine receptor M3 of guinea pig ileum.
recordedMetric: Kd (nM)
Respond numerically; units are nM and should not be typed.

# lookup: Kd of C[C@@H]1O[C@H](C[N+](C)(C)C)C[C@H]1O 1120

----------
Target: UniProt Q8VH26
Experiment: Dissociation constant at muscarinic M3 receptors of guinea pig bladder.
recordedMetric: Kd (µM)
Respond numerically; units are µM and should not be typed.

# lookup: Kd of C[C@@H]1O[C@H](C[N+](C)(C)C)C[C@H]1F 40.7
